- Target of assay: ER (Homo sapiens)
- Construct: transfected in MCF7 cells (containing endogenous ER); endogenous in cells; host or cells: MCF7 cells
- Test protocol: ER transcription assay (MCF7 cells), ERE-luciferase reporter
- Type: cell-based
- Conditions used: MCF7 cells, ER reporter gene, 0.1 nM 17β estradiol, 24 hours; read-out: MCF7 IC50 (inflection point of the inhibition of transcription in MCF7 cells)
IC50 less than 500 nM is 1; IC50 greater than or equal to 500 nM is -1.

[
  {
    "Molecular string": "O=C(O)/C=C/c1ccc(Oc2c(-c3ccccc3Cl)sc3cc(O)ccc23)cc1",
    "Cat": 1
  },
  {
    "Molecular string": "O=C(O)/C=C/c1ccc(Oc2c(-c3ccc(Cl)cc3)sc3cc(O)ccc23)cc1",
    "Cat": -1
  },
  {
    "Molecular string": "CNC(=O)/C=C/c1ccc(Oc2c(-c3ccc(F)cc3)sc3cc(O)ccc23)cc1",
    "Cat": 1
  },
  {
    "Molecular string": "O=C(O)/C=C/c1ccc(Oc2c(-c3ccc(OC(F)(F)F)cc3)sc3cc(O)ccc23)cc1",
    "Cat": -1
  },
  {
    "Molecular string": "CCOC(=O)/C=C/c1ccc(Oc2c(-c3ccc(O)cc3)sc3cc(O)ccc23)c(C)c1",
    "Cat": 1
  },
  {
    "Molecular string": "O=C(O)CCc1ccc(Oc2c(-c3ccc(O)cc3)sc3cc(O)ccc23)cc1",
    "Cat": 1
  },
  {
    "Molecular string": "Cc1cc(C)cc(-c2sc3cc(O)ccc3c2Oc2ccc(/C=C/C(=O)O)cc2)c1",
    "Cat": -1
  },
  {
    "Molecular string": "NC(=O)/C=C/c1ccc(Oc2c(-c3ccc(O)cc3)sc3cc(O)ccc23)cc1",
    "Cat": 1
  },
  {
    "Molecular string": "Cc1ccc(C)c(-c2sc3cc(O)ccc3c2Oc2ccc(/C=C/C(=O)O)cc2)c1",
    "Cat": 1
  },
  {
    "Molecular string": "Cn1cnc(/C=C/c2ccc(Oc3c(-c4ccc(O)cc4)sc4cc(O)ccc34)cc2)c1",
    "Cat": 1
  },
  {
    "Molecular string": "O=c1nc(/C=C/c2ccc(Oc3c(-c4ccc(O)cc4)sc4cc(O)ccc34)cc2)cc(C(F)(F)F)[nH]1",
    "Cat": 1
  },
  {
    "Molecular string": "O=C(O)/C=C/c1ccc(Oc2c(-c3ccccc3[N+](=O)[O-])sc3cc(O)ccc23)cc1",
    "Cat": 1
  },
  {
    "Molecular string": "CC(=O)c1ccccc1-c1sc2cc(O)ccc2c1Oc1ccc(/C=C/C(=O)O)cc1",
    "Cat": 1
  },
  {
    "Molecular string": "O=C(O)/C=C/c1ccc(Oc2c(-c3ccccc3)sc3cc(O)ccc23)cc1",
    "Cat": -1
  },
  {
    "Molecular string": "CC(C)(C)c1ccccc1-c1sc2cc(O)ccc2c1Oc1ccc(/C=C/C(=O)O)cc1",
    "Cat": 1
  }
]

---

Some compounds, each annotated with its measured IC50.
- Target of assay: ER (Homo sapiens, UniProt P03372)
- Construct: transfected in MCF7 cells (containing endogenous ER); endogenous in cells; host or cells: MCF7 cells
- Sequence (P03372 1-595): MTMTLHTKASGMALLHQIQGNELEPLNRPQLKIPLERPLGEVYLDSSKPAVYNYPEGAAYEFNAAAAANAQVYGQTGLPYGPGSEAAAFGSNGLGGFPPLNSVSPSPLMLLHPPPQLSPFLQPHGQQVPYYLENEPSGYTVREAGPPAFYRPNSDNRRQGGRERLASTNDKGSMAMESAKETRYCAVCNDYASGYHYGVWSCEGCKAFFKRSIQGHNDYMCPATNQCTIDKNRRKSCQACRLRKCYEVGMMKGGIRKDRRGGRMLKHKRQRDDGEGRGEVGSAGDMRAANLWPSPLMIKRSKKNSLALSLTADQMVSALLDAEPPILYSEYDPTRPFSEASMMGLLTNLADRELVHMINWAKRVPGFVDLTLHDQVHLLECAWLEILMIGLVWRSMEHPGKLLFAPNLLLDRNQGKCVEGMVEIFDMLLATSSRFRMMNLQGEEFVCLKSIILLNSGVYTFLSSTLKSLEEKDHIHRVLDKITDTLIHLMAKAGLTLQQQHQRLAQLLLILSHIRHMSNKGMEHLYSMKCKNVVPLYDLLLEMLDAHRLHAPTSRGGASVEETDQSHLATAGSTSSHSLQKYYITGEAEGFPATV
- Test protocol: ER transcription assay (MCF7 cells), ERE-luciferase reporter
- Format: cell-based
- Conditions used: comparison of bond order between the phenyl and -C(O)OH; read-out: SERD IC50 MCF7 μM (antagonist activity)

[
  {
    "Compound": "O=C(O)c1ccc(Oc2c(-c3ccc(O)cc3)sc3cc(O)ccc23)cc1 [reference compound]",
    "IC50": "≥ 10 µM"
  },
  {
    "Compound": "O=C(O)/C=C/c1ccc(Oc2c(-c3ccc(O)cc3)sc3cc(O)ccc23)cc1",
    "IC50": "0.748 µM"
  },
  {
    "Compound": "O=C(O)CCCc1ccc(Oc2c(-c3ccc(O)cc3)sc3cc(O)ccc23)cc1 [reference compound]",
    "IC50": "≥ 10 µM"
  }
]

Data provenance is patent US8877801B2.
